The reported numbers originate from the supplement of paper PMC9170038.

- System: K4 kissing-loop RNA reporter;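 also: bound reporter read as fluorescence of individual clusters on recovered sequencing chips by microscopy, with normalized cluster intensities fitted with a binding model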
- assayComment: apparent KD of K4 kissing-loop reporter; higher = weaker reporter binding
- experimentalSetup: Eterna round: R107; input ligand: theophylline 20 uM
reportedEndpoint: apparent KD of K4 kissing-loop reporter (nM)
Express the result in nM but write the number alone.

| inputSequence | measurementUnit | observedValue |
| --- | --- | --- |
| AUGUAUGAAUUAGGAUAUCGUUAGCCUAUCAUAUAUAUGAUAAAUGGAUAUGUCGUAGUGAUGUUACGAGAAGGAGUGUGGAGUA [KL-XFMN-B7] | nM | 82.7 |
| AGUAAUAUCACGGCCGCCACUGAUUAUUGUUUUUAUAGUUAUAAAUCUUGCCAGUGAUGUUGGUUCAGGACCGGGUGAGUUAAUA [JR_SSTryptoB_Sub001] | nM | 727 |
| AAGCAGUCACUCGAACCCAUCGAAGAUGGGCGAGGACCGGUACGGCCGCCACUCGGAGUGAUGUUCCGCAGACUGCAAAAUAAAA | nM | 249 |
| CGUACGGUUUCUUUCUUUCCGUACGAGUGCCGAGGACCGGUACGGCCGCCACUCGCUACAGCCUAGUGAUGUUAGGCGAUUCUUU | nM | 163 |
| AAAAUAAUCCAGUGAUGUUGGUAUUCAGAUACCAGCGACGAAAGUCGCCCUUGGCAGCUGUGGACGUACAAAAUAAGUACGUCCU | nM | 944 |

Then there is this sequence:
Incoming: Any idea what its apparent KD of K4 kissing-loop reporter is? The sequence is CGCAGUGAUGUUGUGAUUAACUACAGGGAAGGAGCGUGCUAGAGCACAGGUAGGUCGCCCAGUGGCCGAGUGAUGUUCGGCGGGU [Same State Arginine A GF 27]
Outgoing: 250

* * *

- Tested on: MS2 coat protein
- assayComment: apparent KD of MS2 coat protein; designed switch direction (-1 OFF switch, 1 ON switch): 1; higher = weaker reporter binding
- experimentalSetup: input ligand: FMN 200 uM
reportedEndpoint: apparent KD of MS2 coat protein

| inputSequence | reportedEndpoint | observedValue |
| --- | --- | --- |
| UUGAAGAAUUAAGGAUAUUGAAUACAUAUGUUUAACAUGAGGAUCACCCAUGUGGGUUGCGGUGUCGAGAAGGUAAAAUAAUAG [Mat - same State NG 2 - JL mod - D95] (Eterna round: R96, puzzle: Same State NG 2) | apparent KD of MS2 coat protein | 194 nM |

Incoming: For the sequence AGCUAUUACGAAGGAUAUAGGGACAUGAGGAUCACCCAUGUGUACAUGAGUAAAUGUGAUCACGUCUAGAAGGUUGUACUAACA [SameState NG2 #36] (Eterna round: R96, puzzle: Same State NG 2) , what apparent KD of MS2 coat protein is on record?
Outgoing: 474 nM

* * *

- Test system: MS2 coat protein
- assayComment: apparent KD of MS2 coat protein; designed switch direction (-1 OFF switch, 1 ON switch): -1; higher = weaker reporter binding
- experimentalSetup: Eterna round: R95; input ligand: microRNA oligo, concentration not stated
The entries below come with measured apparent KD of MS2 coat protein values attached.
Express the reported value numerically, then name its unit.

| inputSequence | observedValue |
| --- | --- |
| ACCUAACAUGAGGAUCACCCAUGUCAGGAUAUCCGGCCUAUGGAAACAUAGGAAGAACGGAGAAGGGACAGAGG [ChP 04-04-2015 #9] (puzzle: Exclusion 1) | 35 nM |
| UAUUAGCUAGGAUAUACAUGAGGAUCACCCAUGUCACGGGUCCACUCGUCCUAUGCGUGUAGAAGGAGCGACCC [JL Ceriza mod 2] (puzzle: Exclusion 3) | 20.6 nM |
| UGGGUACUCCAUAGAAGAAACAUGAGGAUCACCCAUGUAGGGCAAGUUUUUUGCUCGUCAUAGGUUGAGGGAUUGGA [JR_SV3TOV1_Sub016] (puzzle: Sensor v3, turn-off variant 1) | 343 nM |
| UCAUGUAUGUAGGAUAUCGAUGUCCUUGGACAUCGAGAAGGACGUACAUGAGGAUCACCCAUGUAACUUGCAUG [Exclusion 6 - B - 11:d] (puzzle: Exclusion 6) | 18.7 nM |

Incoming: # value lookup — system MS2 coat protein, readout apparent KD of MS2 coat protein, item AAAAUACAUGAGGAUCACCCAUGUAAGGAUAUACGCCUAGUACCGAUGGUACUACAAAGUAGAAGGUACAUGGC [Arma] (puzzle: Exclusion 1)
Outgoing: 12.3 nM
